# PROTOCOL TEXT: MRP1 drug-resistance reversers in H69AR cells – cell-based, doxorubicin co-treatment, pilot screen (AID 601)
# RECORDED CONDITIONS: H69AR cells + 2 uM doxorubicin, CellTiter-Glo, 72 h; at 10 µM; stronger effect = higher value
The following molecules are shown together with reported differential viability (reversal) values.
Lab book: enter the figure in %, no units written.

Look over these answered cases.
MOLECULE: COCCn1c(=N)c(C(=O)NCCc2ccccc2)cc2c(=O)n3cccc(C)c3nc21
PARAMETER: differential viability (reversal)
RECORDED MEASUREMENT: 15.7
//
MOLECULE: CCOc1ccc(NS(=O)(=O)c2cc(Cl)ccc2OC)cc1
PARAMETER: differential viability (reversal)
RECORDED MEASUREMENT: -22.1
//
MOLECULE: COc1cccc(C2CC(c3c(Cl)cccc3Cl)n3nc(N)nc3N2)c1 (centres undefined)
PARAMETER: differential viability (reversal)
RECORDED MEASUREMENT: 4.33
//
MOLECULE: CCOC(=O)N1CCN(Cc2nc3c(c(=O)n(C)c(=O)n3C)n2Cc2ccc(F)cc2)CC1
PARAMETER: differential viability (reversal)
RECORDED MEASUREMENT: -0.205
//
MOLECULE: CC(C)(C)NC(=O)CSc1nnc(-c2ccccn2)n1-c1ccccc1
PARAMETER: differential viability (reversal)
RECORDED MEASUREMENT: 0.06

Please supply the value of reported differential viability (reversal) for the item Cc1c(C(=O)OCCOC(C)C)[nH]c2c1C(=O)CC(c1ccco1)C2 (centres undefined) -34.4

Please supply the value of reported differential viability (reversal) for the item O=C(CS(=O)(=O)c1cn(Cc2ccc(F)cc2)c2ccccc12)N1CCCCC1 11.9

###

The following compounds are shown together with reported viability values.
# PROTOCOL TEXT: Her2 expression decrease, cell viability multiplex – SKBR3 breast tumor cells, AlphaScreen, ATP viability, primary screen (AID 461);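 note: percent of carrier control wells set as 100% viability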
# RECORDED CONDITIONS: SKBR3 Her2 protein level, 18-24 h, measured here: SKBR3 viability, ATP luminescence, at 10 µM
Lab book: enter the figure in %, no units written.

Look over these answered cases.
COMPOUND: CSc1cccc(NS(=O)(=O)c2ccccc2)c1
viability / %: 78.5

COMPOUND: Cc1ccc2[nH]c(=O)c3cc(C(=O)NCCN4CCN(C)CC4)sc3c2c1
viability / %: 96

Please supply the value of reported viability for the item CCOc1ccc(N(CC(=O)Nc2cccc(OC)c2)S(=O)(=O)c2c(C)noc2C)cc1 91.5

Please supply the value of reported viability for the item COc1ccc(C2C(C(=O)N3CCCC3)c3cc(OC)c(OC)cc3C(=O)N2C)cc1 (stereo unspecified) 88.5

Please supply the value of reported viability for the item CC1Cc2nc(SCC(N)=O)n(Cc3ccccc3)c(=O)c2S1 (stereo unspecified) 88.5

Please supply the value of reported viability for the item CCCCCn1c(=O)[nH]c2cc(C(=O)NCCCN3CCCCC3)ccc2c1=O 76

###

The following compounds are shown together with reported viability values.
# PROTOCOL TEXT: reduced viability of SK-BR-3 breast cancer cells – cell-based, 24 h, human, pilot screen (AID 572);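 note: compound exposure lasted between 18 and 24 h rather than exactly 24 h; 100% = carrier-treated control wells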
# RECORDED CONDITIONS: SK-BR-3 viability, CellTiter-Glo luminescence, at 10 µM, stronger effect = lower value
Lab book: enter the figure in %, no units written.

COMPOUND: CC(=O)N1CCc2c(sc(NC(=O)c3ccc(S(=O)(=O)N(C)C)cc3)c2C#N)C1
PARAMETER: viability
UOM: %
RECORDED MEASUREMENT: 83.5

COMPOUND: CC(C)C(=O)Nc1ccc(-c2nc3cccnc3o2)cc1
PARAMETER: viability
UOM: %
RECORDED MEASUREMENT: 93.5

COMPOUND: CCOc1ccc(NC(=O)CSc2nccn2C)cc1
PARAMETER: viability
UOM: %
RECORDED MEASUREMENT: 103

Please supply the value of reported viability for the item N#CCCN(Cc1cccnc1)C(=O)Nc1ccc(Cl)c(Cl)c1 118

Please supply the value of reported viability for the item COc1cccc(-c2nc3n(n2)C(c2cccs2)C(C(=O)Nc2cccnc2)=C(C)N3)c1 (stereo unspecified) 78

Please supply the value of reported viability for the item Cc1cc(C)n(-c2ccc(N3CCOCC3)nn2)n1 108

###

# PROTOCOL TEXT: doxorubicin toxicity protection in MRP-1 cells – H69AR cells, CellTiter-Glo, duplicate, MRP-1 activator project, pilot screen (AID 807);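 note: compound pretreatment 18-22 h then 72 h combined with doxorubicin; 0% = doxorubicin alone and 100% = vehicle without doxorubicin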
# RECORDED CONDITIONS: H69AR viability with doxorubicin, CellTiter-Glo luminescence; at 10 µM; stronger effect = higher value
The following compounds are shown together with reported viability increase values.
Lab book: enter the figure in %, no units written.

COMPOUND: Cc1ccccc1-c1nnc(-c2ccc(Cl)cc2)o1
UOM: %
viability increase: -6.28

COMPOUND: O=C(Cn1ncc2c(=O)oc3ccccc3c21)NCCCN1CCCC1=O
UOM: %
viability increase: -0.08

COMPOUND: COc1ccc(N2CCN(C(=O)c3ccc4nc(N5CCCCC5)sc4c3)CC2)cc1
UOM: %
viability increase: 0.49

COMPOUND: C/C=C/COC(=O)c1[nH]c2c(c1C)C(=O)CC(c1ccco1)C2 (centres undefined)
UOM: %
viability increase: -4.93

COMPOUND: CC12CN3CCN(CC(C3)C1(O)CN1CCCCC1)C2 (centres undefined)
UOM: %
viability increase: -1.63

Please supply the value of reported viability increase for the item O=C1NCCCC1C(=O)NCCNC(=O)C(F)(F)F (centres undefined) -1.47

Please supply the value of reported viability increase for the item Cc1nnc(SCC(=O)Nc2ccc3c4c(cccc24)CC3)n1C -4.3

Please supply the value of reported viability increase for the item Cc1ccc(CN2CCN(CC(=O)N3CCC(C(N)=O)CC3)C2=O)cc1 -0.17

Please supply the value of reported viability increase for the item S=c1[nH]nc(-c2ccccc2)n1C1C=CCCC1 (centres undefined) -1.61

Please supply the value of reported viability increase for the item Cc1cc(C)c(NC(=O)c2ccc(S(=O)(=O)N3CCOCC3)cc2)c(C)c1 -2.1

Please supply the value of reported viability increase for the item Nc1cc(N)cc(-c2nc3ccccc3o2)c1 -0.39

Please supply the value of reported viability increase for the item Cc1c(C(=O)O)oc2ccc(S(=O)(=O)N3CCCCC3C(=O)O)cc12 (centres undefined) -0.18

Please supply the value of reported viability increase for the item COC(=O)Cn1c(CN2CCc3ccccc3C2)nc2c1c(=O)n(C)c(=O)n2C -1.18

###

# PROTOCOL TEXT: viability of HCT116 without oncogenic beta-catenin – human colon tumor cells, pilot screen (AID 823);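 note: 0% = wells killed by 20 µM Hyamine and 100% = untreated DMSO cell wells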
# RECORDED CONDITIONS: HCT116 beta-catenin knockout viability, CellTiter-Glo, 60 h; at 10 µM
Results filed as inconclusive are left out. The source made the active and inactive calls.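 The calls were made as follows: active = cell viability at or below a set limit in both duplicate runs, the limit being the all-compound median minus 4 SD (cut at about 23% in these data, passing the limit was not always enough); inconclusive = no clear call, values can overlap the other calls; inactive = the rest.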
Pick one and only one: T = active, F = inactive

For orientation, consider the following solved cases.
COMPOUND: COc1cccc(NC(=O)c2ccco2)c1
CATEGORY: F

COMPOUND: Cn1c(C(=O)NCCCN2CCCCCC2)cc2c(=O)n(C)c3ccccc3c21
CATEGORY: F

Please state the recorded outcome for this compound: O=C(NC1CCCc2ccccc21)c1cccnc1 (configuration not stated) F

Please state the recorded outcome for this compound: Nc1nc(SCC(=O)N2CCCc3ccccc32)n(-c2ccccc2)n1 F

Please state the recorded outcome for this compound: CCN(CC)C(=O)Oc1ccccc1NC(C)=O F

Please state the recorded outcome for this compound: Cc1cc2c3nonc3ccc2n1-c1ccccc1 F

Please state the recorded outcome for this compound: COc1ccc(C(=O)N2CCC(C(=O)Nc3cccc(C)c3)CC2)cc1OC F

Please state the recorded outcome for this compound: O=C(O)c1cccnc1SC1CC(=O)N(c2cccc(C(F)(F)F)c2)C1=O (configuration not stated) F

Please state the recorded outcome for this compound: O=P(O)(CN1CCCCCC1)CN1CCCCCC1 F

Please state the recorded outcome for this compound: CCOC(=O)c1ccc(N=c2sc(C(=O)OC)cc(=O)n2Cc2ccco2)cc1 T

Please state the recorded outcome for this compound: Nc1nc(NC(=O)c2ccco2)nn1-c1ccccc1 F

Please state the recorded outcome for this compound: O=C(c1ccc2nc(N3CCCCC3)sc2c1)N1CCN(c2ccccn2)CC1 F

###

The following compounds are shown together with reported inhibition values.
# PROTOCOL TEXT: growth suppression of yeast trafficking mutant, preliminary HTS, modulators of trafficking downstream of Golgi apparatus project, 1536-format plate, OD 615 nm (AID 637)
# RECORDED CONDITIONS: yeast transport mutant growth, absorbance 615 nm, 18 h; stronger effect = higher value
Lab book: enter the figure in %, no units written.

COMPOUND: Cc1cc(C)c(C#N)c(SCC(=O)Nc2ccc(S(=O)(=O)Nc3onc(C)c3C)cc2)n1
inhibition, %: 0.33
--
COMPOUND: COc1ccccc1CNC(=O)CCn1c(=O)[nH]c2ccsc2c1=O
inhibition, %: 2.17
--
COMPOUND: COC(=O)Cc1cc(=O)[nH]c(Nc2nc3ccccc3o2)n1
inhibition, %: -3.33
--
COMPOUND: CCOc1ccc(NC2c3ccccc3C(=O)N2Cc2ccco2)cc1 (stereo not drawn)
inhibition, %: 7.83
--
COMPOUND: O=C(O)C1CCCN(S(=O)(=O)c2ccc(Cl)s2)C1 (stereo not drawn)
inhibition, %: 0.5

Please supply the value of reported inhibition for the item Cn1nnnc1SCC(=O)Nc1ccccc1C(=O)NCc1ccccc1 -7.33
